- Tested on: HCV replicon, genotype-1a variant with glutamine 30 changed to glutamate in the NS5A protein
- ASSAY REMARKS: microbe, parasite or virus in culture
- Format: cell-based, HCV genotype 1a
- TEST SETTINGS: HCV replicon genotype 1a Q30E (Q→E) variant; test compound titrated with an NS5A-targeting compound (BMS-790052 fixed at 200 nM); ranking of synergist activity
Hi there, I'd appreciate the recorded Fold-Synergistic 1a (Q30E) for every entry that follows.

Examples with their reported Fold-Synergistic 1a (Q30E) follow.
1) CC(C)(C(=O)N[C@H](c1nc(-c2ccc(-c3ccc(-c4c[nH]c([C@@H](NC(=O)C(C)(C)C(=O)N5CC[C@@H](O)C5)C(C)(C)C)n4)cc3)cc2)c[nH]1)C(C)(C)C)C(=O)N1CC[C@@H](O)C1; >10 fold
2) Cc1ccc(C(F)(F)C(=O)N[C@H](c2nc(-c3ccc(-c4ccc(-c5c[nH]c([C@@H](NC(=O)C(F)(F)c6ccc(C)cc6)C(C)(C)C)n5)cc4)cc3)c[nH]2)C(C)(C)C)cc1; >100 fold
3) O=C(N1CCC[C@H]1c1ncc(-c2ccc(-c3ccc(-c4cnc([C@@H]5CCCN5C(=O)C5(c6ccccc6)CC5)[nH]4)cc3)cc2)[nH]1)C1(c2ccccc2)CC1; <10 fold

Count: 2. Required value per item: Fold-Synergistic 1a (Q30E).
1. O=C(CC(F)(F)F)N1CCC[C@H]1c1ncc(-c2ccc(-c3ccc(-c4cnc([C@@H]5CCCN5C(=O)CC(F)(F)F)[nH]4)cc3)cc2)[nH]1
2. CC(C)(C)OC(=O)N1CC(F)(F)C[C@H]1C(=O)N[C@H](c1nc(-c2ccc(-c3ccc(-c4c[nH]c([C@@H](NC(=O)[C@@H]5CC(F)(F)CN5C(=O)OC(C)(C)C)C(C)(C)C)n4)cc3)cc2)c[nH]1)C(C)(C)C

-- reply
1: <10 fold; 2: >100 fold

These entries and their values trace back to patent US9326973B2.
